assayed_system: androgen receptor (AR) (Homo sapiens)
Sequence (P10275 whole entry): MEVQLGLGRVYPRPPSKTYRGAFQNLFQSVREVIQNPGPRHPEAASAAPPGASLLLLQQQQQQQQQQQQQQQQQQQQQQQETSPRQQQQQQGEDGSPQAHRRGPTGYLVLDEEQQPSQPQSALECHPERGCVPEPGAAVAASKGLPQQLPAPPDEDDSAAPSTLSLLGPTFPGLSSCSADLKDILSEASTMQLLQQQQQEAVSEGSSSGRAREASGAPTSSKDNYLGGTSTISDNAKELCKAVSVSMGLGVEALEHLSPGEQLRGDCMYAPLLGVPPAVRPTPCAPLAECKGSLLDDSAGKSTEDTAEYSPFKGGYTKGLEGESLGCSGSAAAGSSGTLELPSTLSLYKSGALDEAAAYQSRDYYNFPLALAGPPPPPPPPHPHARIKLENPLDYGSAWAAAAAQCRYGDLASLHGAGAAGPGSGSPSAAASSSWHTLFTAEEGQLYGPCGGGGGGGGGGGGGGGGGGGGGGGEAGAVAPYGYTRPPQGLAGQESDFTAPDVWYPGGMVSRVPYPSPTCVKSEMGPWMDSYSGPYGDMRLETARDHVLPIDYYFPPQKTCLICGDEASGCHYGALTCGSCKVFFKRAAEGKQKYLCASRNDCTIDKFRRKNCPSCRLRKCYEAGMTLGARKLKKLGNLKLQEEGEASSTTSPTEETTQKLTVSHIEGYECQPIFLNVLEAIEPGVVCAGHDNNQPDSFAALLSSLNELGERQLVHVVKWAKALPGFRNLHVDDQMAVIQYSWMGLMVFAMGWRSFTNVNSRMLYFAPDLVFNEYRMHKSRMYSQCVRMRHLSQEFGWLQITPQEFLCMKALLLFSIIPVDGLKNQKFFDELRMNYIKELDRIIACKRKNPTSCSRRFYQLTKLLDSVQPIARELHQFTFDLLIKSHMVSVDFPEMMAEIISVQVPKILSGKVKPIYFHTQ
assay_protocol: MDA-kb2 Assay with 0.1 nM DHT (Example 13)
Assay type: cell-based
condition_details: MDA-kb2, 0.1 nM DHT, 24 hours
observation_type: IC50

molecule	observation_type	value_reported
CC12CCC(=O)C=C1C[C@@H](SC(=O)CC13CC4CC(CC(C4)C1)C3)C1C2CCC2(C)C1CC[C@@]21CCC(=O)O1 (stereo partly shown)	IC50	789 nM

----------
IC50 at 72 h values for the molecules below.
assay_protocol: in vitro
condition_details: human

molecule	relation_symbol	IC50 at 72 h, µM
CC(=O)S[C@@H]1CC2=CC(=O)CC[C@]2(C)[C@H]2CC[C@@]3(C)[C@@H](CC[C@@]34CCC(=O)O4)[C@H]12	=	50
CC(=O)N1CCN(c2ccc(OC[C@H]3CO[C@](Cn4ccnc4)(c4ccc(Cl)cc4Cl)O3)cc2)CC1 (racemic)	=	11
O=C(Nc1ccc([N+](=O)[O-])cc1Cl)c1cc(Cl)ccc1O [Niclosamide]	<	0.2

----------
Cell Viability values for the compounds below.
System: normal Human Adult Primary Epidermal Keratinocyte cell line
condition_details: 72 h, 5.56 μM

compound	Cell Viability
CC12CCC(=O)C=C1C[C@@H](SC(=O)CC13CC4CC(CC(C4)C1)C3)C1C2CCC2(C)C1CC[C@@]21CCC(=O)O1 (stereo partly shown)	66.12
CC(=O)N1CCN(c2ccc(OC[C@H]3CO[C@](Cn4ccnc4)(c4ccc(Cl)cc4Cl)O3)cc2)CC1 (racemic)	71.22
CC(=O)S[C@@H]1CC2=CC(=O)CC[C@]2(C)[C@H]2CC[C@@]3(C)[C@@H](CC[C@@]34CCC(=O)O4)[C@H]12	99.27
O=C(Nc1ccc([N+](=O)[O-])cc1Cl)c1cc(Cl)ccc1O [Niclosamide]	25.07

----------
assay_protocol: Keratinocyte Cell Viability Assay (Example 11, 72 hours)
condition_details: human
observation_type: IC50 at 72 h (nM)

compound_string	value_reported
O=C(CC12CC3CC(CC(C3)C1)C2)NCCOCCOCC(=O)N1CCN(c2ccc(OC[C@H]3CO[C@](Cn4ccnc4)(c4ccc(Cl)cc4Cl)O3)cc2)CC1	2000

----------
System: normal Human Adult Primary Epidermal Keratinocyte cell line
assay_protocol: Keratinocyte cell viability (Trypan Blue exclusion, Example 10)
condition_details: 10 μM, keratinocytes, 1.0 nM DHT, 24 hours
Cell Viability values for the compounds below.

compound	u	Cell Viability
O=C(CC12CC3CC(CC(C3)C1)C2)N1CCN(c2ccc(OC[C@H]3CO[C@](Cn4ccnc4)(c4ccc(Cl)cc4Cl)O3)cc2)CC1	%	94
CC(=O)N1CCN(c2ccc(OC[C@H]3CO[C@](Cn4ccnc4)(c4ccc(Cl)cc4Cl)O3)cc2)CC1 (racemic)	%	95
CC(=O)S[C@@H]1CC2=CC(=O)CC[C@]2(C)[C@H]2CC[C@@]3(C)[C@@H](CC[C@@]34CCC(=O)O4)[C@H]12	%	95
O=C(CC12CC3CC(CC(C3)C1)C2)NCCOCCOCC(=O)N1CCN(c2ccc(OC[C@H]3CO[C@](Cn4ccnc4)(c4ccc(Cl)cc4Cl)O3)cc2)CC1	%	94

----------
Cell Viability values for the compounds below.
Tested on: normal Human Adult Primary Epidermal Keratinocyte cell line
assay_protocol: Keratinocyte cell viability (Trypan Blue exclusion, Example 10)
condition_details: 3.0 μM, keratinocytes, 1.0 nM DHT, 24 hours
observation_type: Cell Viability

compound	value_reported
O=C(CC12CC3CC(CC(C3)C1)C2)N1CCN(c2ccc(OC[C@H]3CO[C@](Cn4ccnc4)(c4ccc(Cl)cc4Cl)O3)cc2)CC1	94%
CC(=O)N1CCN(c2ccc(OC[C@H]3CO[C@](Cn4ccnc4)(c4ccc(Cl)cc4Cl)O3)cc2)CC1 (racemic)	94%
O=C(CC12CC3CC(CC(C3)C1)C2)NCCOCCOCC(=O)N1CCN(c2ccc(OC[C@H]3CO[C@](Cn4ccnc4)(c4ccc(Cl)cc4Cl)O3)cc2)CC1	93%
CC(=O)S[C@@H]1CC2=CC(=O)CC[C@]2(C)[C@H]2CC[C@@]3(C)[C@@H](CC[C@@]34CCC(=O)O4)[C@H]12	92%

Ref: patent US12319681B2
